nonsense suppression values for the variants below.
B1: tRNA (parent)
chain: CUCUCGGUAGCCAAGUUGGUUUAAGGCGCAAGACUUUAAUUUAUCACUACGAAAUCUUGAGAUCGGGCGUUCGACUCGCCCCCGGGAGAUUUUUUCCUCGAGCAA

variants of: B1; test: nonsense suppression (GFP-seq) (ratio to wild type); higher = more function; SUP4oc tRNA, yeast GFP reporter sort-seq
This sample holds only a part of the variants without activity.
Output: the number by itself.

Examples from the recorded data:
monomer-sequence	measured-quantity	observed-result
CUCUCGGUUGCUAAGUUGGUUUAAGGCGCAAGACUUUAAUUUAUCACUACGAAAUCUUGAGAUCGGGCGUUCGACUCGCCCCCGGGAGAUUUUUUCCUCGAGCAA	nonsense suppression	0.29
CUCUCGGUAGCCAAGUUGGUUUAAGGCGCAAGACUUUAAUUUAUCACUACGAAAUCUUGCGAUCGGGCGUUCUACUCGCCCCCGGGAGAUUUUUUCCUCGAGCAA	nonsense suppression	0.049
CUCUCGGUAGCCAAGUUGGCUUAAGGCGCAAGACUUUAAUUUAUCACUACGAAAUCUUGAGAUCGGGCGUUCGACUCGCUCCCGGGAGAUUUUUUCCUCGAGCAA	nonsense suppression	0.036
CUCUCGGUAGCUAAGUUGGUUUAAGGCGCAAGACUUUAAUUUAUCACUACGAAAUCUUGAGAACGGGCGUUCGACUCGCCCCCGGGAGAUUUUUUCCUCGAGCAA	nonsense suppression	0.697
CUCUCGGUAGCCAAGUUGGUUUAAGGCGUAAGACUUUAAUUUAUCACUACGAAAUCUUGAAAUCGGGCGUUCGACUCGCCCCCGGGAGAUUUUUUCCUCGAGCAA	nonsense suppression	0.83

Ask | Output measured nonsense suppression for this item: CUCUCGGUAGCCAAGUUGGUUUAAGGCGCAAGACUUUAAUUUAUCACUACGAAAUCUUGAGAGCGGGCGUUCGACUCGCCCCCGAGAGAUUUUUUCCUCGAGCAA
Reply | 0.787

Ask | Output measured nonsense suppression for this item: CUCUCGGUAGCCAAGUUGGGUUAAGGCGCAAGACUUUAAUUUAUCACUACGAAAUCUUGAGAUCGGGCGUUCGACUCGCCCCCGCGAGAUUUUUUCCUCGAGCAA
Reply | 0.0271

Ask | Output measured nonsense suppression for this item: CUCUCGGUAGCCAAGUUGGUUUAAGGCGCAGGACUUUAAUUUAUCACUACGAAAUCUUGAGAUCGGGCGCUCGACUCGCCCCCGGGAGAUUUUUUCCUCGAGCAA
Reply | 0.0279

Ask | Output measured nonsense suppression for this item: CUCUCGGUAGCCAAGUCGGUUUAAGGCGCAAGACUUUAAUUUAUCACUACGAAAUCUUGAGAUCGGGCGUUCGACUCGCCCCCGGGGGAUUUUUUCCUCGAGCAA
Reply | 0.226
